System: 242566-281-R-J2-PDC complex spheroid viability
Assay: Anticancer human tumor 242566-281-R-J2-PDC patient-derived pancreatic carcinoma cell line growth inhibition [RAS]
Settings: second compound 0.00949 µM; first compound 10 µM; stronger effect = lower value
Description: RAS pathway inhibitors in Combinations in Complex Spheroids A high-throughput screen of multi-cell type tumor spheroids was designed to identify active combinations of RAS pathway inhibitors and targeted small molecules. Complex spheroids include a stromal component modeled by human endothelial cells (HUVEC) and fibroblasts modeled by human mesenchymal stem cells (MSCs). […] Compounds. […] If the clinical Cmax for an agent had not been determined, the highest concentration tested was 10 microM. […]
Recorded viability, T/C by entry

The examples below pair each entry with its known result.
Form: Entry = CC(Nc1ccc2c(c1)OCCn1cc(N3C(=O)OCC3C(F)F)nc1-2)C(N)=O (centres undefined) + CCn1c(-c2cc(N3CCN(C)CC3)cnc2C(C)OC)c2c3cc(ccc31)-c1csc(n1)CC(NC(=O)C1CC1C)C(=O)N1CCCC(N1)C(=O)OCC(C)(C)C2 | System = 242566-281-R-J2-PDC complex spheroid viability | viability, T/C = ____ 3.19%

Form: Entry = NC1c2ccccc2OC12CCN(c1cnc3c(N4CCCc5ncccc54)n[nH]c3n1)CC2 (centres undefined) + CCn1c(-c2cccnc2C(C)OC)c2c3cc(ccc31)N1CCOC(CC(NC(=O)C(C(C)C)N(C)C(=O)C3(F)CCN(C(=O)C#CC(C)(C)N(C)C)CC3)C(=O)N3CCCC(N3)C(=O)OCC(C)(C)C2)C1 | System = 242566-281-R-J2-PDC complex spheroid viability | viability, T/C = ____ 28.3%

Form: Entry = Cc1nc(N2CCC3(CC2)COC(C)C3N)c(CO)nc1Sc1ccnc(N)c1Cl (centres undefined) + CCn1c(-c2cc(N3CCN(C)CC3)cnc2C(C)OC)c2c3cc(ccc31)-c1csc(n1)CC(NC(=O)C1CC1C)C(=O)N1CCCC(N1)C(=O)OCC(C)(C)C2 | System = 242566-281-R-J2-PDC complex spheroid viability | viability, T/C = ____ 17.1%

Consider the additional compound presented here.
Form: Entry = NC1c2ccccc2OC12CCN(c1cnc3c(N4CCCc5ncccc54)n[nH]c3n1)CC2 (centres undefined) + CCn1c(-c2cc(N3CCN(C)CC3)cnc2C(C)OC)c2c3cc(ccc31)-c1csc(n1)CC(NC(=O)C1CC1C)C(=O)N1CCCC(N1)C(=O)OCC(C)(C)C2 | System = 242566-281-R-J2-PDC complex spheroid viability | viability, T/C = ____ 7.23%

====

Test system: 242566-281-R-J2-PDC complex spheroid viability
Assay: Anticancer human tumor 242566-281-R-J2-PDC cell line growth inhibition [RAS]; active = viability on the fitted dose curve at most 10% of control; inactive = the rest;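 also: spheroids exposed to compound for 7 days before readout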
Conditions: second compound 0.3 µM; first compound 0.1 µM
Tick one outcome: t (active), f (inactive)

Solved entries (count: 3):
Outcome? O=C(c1ccc(F)c(F)c1Nc1ccc(I)cc1F)N1CC(O)([C@@H]2CCCCN2)C1 + CCn1c(-c2cccnc2C(C)OC)c2c3cc(ccc31)N1CCOC(CC(NC(=O)C(C(C)C)N(C)C(=O)C3(F)CCN(C(=O)C#CC(C)(C)N(C)C)CC3)C(=O)N3CCCC(N3)C(=O)OCC(C)(C)C2)C1 f

Outcome? CCC(CC)c1cc(NC2CCC(N)C2)n2nccc2n1 (stereo not drawn) + CCn1c(-c2cc(N3CCN(C)CC3)cnc2C(C)OC)c2c3cc(ccc31)-c1csc(n1)CC(NC(=O)C1CC1C)C(=O)N1CCCC(N1)C(=O)OCC(C)(C)C2 f

Outcome? C=CC(=O)Nc1cc(Nc2nccc(-c3cn(C)c4ccccc34)n2)c(OC)cc1N(C)CCN(C)C + CCn1c(-c2cc(N3CCN(C)CC3)cnc2C(C)OC)c2c3cc(ccc31)-c1csc(n1)CC(NC(=O)C1CC1C)C(=O)N1CCCC(N1)C(=O)OCC(C)(C)C2 f

Others:
Outcome? CC(=O)OC12COC1CC(O)C1(C)C(=O)C(O)C3=C(C)C(OC(=O)C(O)C(NC(=O)OC(C)(C)C)c4ccccc4)CC(O)(C(OC(=O)c4ccccc4)C21)C3(C)C (stereo not drawn) + CCn1c(-c2cc(N3CCN(C)CC3)cnc2C(C)OC)c2c3cc(ccc31)-c1csc(n1)CC(NC(=O)C1CC1C)C(=O)N1CCCC(N1)C(=O)OCC(C)(C)C2 t

Outcome? CC(=O)OC12COC1CC(O)C1(C)C(=O)C(O)C3=C(C)C(OC(=O)C(O)C(NC(=O)OC(C)(C)C)c4ccccc4)CC(O)(C(OC(=O)c4ccccc4)C21)C3(C)C (stereo not drawn) + CCn1c(-c2cccnc2C(C)OC)c2c3cc(ccc31)N1CCOC(CC(NC(=O)C(C(C)C)N(C)C(=O)C3(F)CCN(C(=O)C#CC(C)(C)N(C)C)CC3)C(=O)N3CCCC(N3)C(=O)OCC(C)(C)C2)C1 f

Outcome? CC(C)NCC(C(=O)N1CCN(c2ncnc3c2C(C)CC3O)CC1)c1ccc(Cl)cc1 (stereo not drawn) + CCn1c(-c2cc(N3CCN(C)CC3)cnc2C(C)OC)c2c3cc(ccc31)-c1csc(n1)CC(NC(=O)C1CC1C)C(=O)N1CCCC(N1)C(=O)OCC(C)(C)C2 f

Outcome? Nc1ccn(C2OC(CO)C(O)C2(F)F)c(=O)n1 (stereo not drawn) + CCn1c(-c2cccnc2C(C)OC)c2c3cc(ccc31)N1CCOC(CC(NC(=O)C(C(C)C)N(C)C(=O)C3(F)CCN(C(=O)C#CC(C)(C)N(C)C)CC3)C(=O)N3CCCC(N3)C(=O)OCC(C)(C)C2)C1 f

Outcome? NC1c2ccccc2OC12CCN(c1cnc3c(N4CCCc5ncccc54)n[nH]c3n1)CC2 (stereo not drawn) + CCn1c(-c2cc(N3CCN(C)CC3)cnc2C(C)OC)c2c3cc(ccc31)-c1csc(n1)CC(NC(=O)C1CC1C)C(=O)N1CCCC(N1)C(=O)OCC(C)(C)C2 f

====

Tested on: 242566-281-R-J2-PDC complex spheroid viability
Experiment: Anticancer human tumor 242566-281-R-J2-PDC cell line growth inhibition [RAS];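 also: spheroids exposed to compound for 7 days before readout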
Settings: curve of first compound; second compound 0.0316 µM
reported-property: IC50

The examples below pair each entry with its known result.
Form: Entry = C[C@@H](NC(=O)c1ncnc(N)c1Cl)c1ncc(C(=O)Nc2cc(C(F)(F)F)c(Cl)cn2)s1 + C=CC(=O)N1CCN(c2nc(OCC3CCCN3C)nc3c(F)c(-c4nc(N)cc(C)c4C(F)(F)F)c(Cl)cc23)C(C)C1 | System = 242566-281-R-J2-PDC complex spheroid viability | IC50 = ____ > 10 µM

Form: Entry = CCC(CC)c1cc(NC2CCC(N)C2)n2nccc2n1 (stereo not drawn) + C#Cc1c(F)ccc2cc(O)cc(-c3ncc4c(N5CC6CCC(C5)N6)nc(OCC56CCCN5CC(F)C6)nc4c3F)c12 | System = 242566-281-R-J2-PDC complex spheroid viability | IC50 = ____ 2.61 µM

Consider the additional molecule presented here.
Form: Entry = CC(C)n1nc(-c2ccc3oc(N)nc3c2)c2c(N)ncnc21 + C=CC(=O)N1CCN(c2nc(OCC3CCCN3C)nc3c(F)c(-c4nc(N)cc(C)c4C(F)(F)F)c(Cl)cc23)C(C)C1 | System = 242566-281-R-J2-PDC complex spheroid viability | IC50 = ____ > 0.1 µM

====

Tested on: 242566-281-R-J2-PDC complex spheroid viability
Assay: Anticancer human tumor 242566-281-R-J2-PDC cell line growth inhibition [RAS];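 also: spheroids exposed to compound for 7 days before readout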;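 as to viability, T/C: 100% = DMSO vehicle control wells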
Conditions: second compound 10 µM; first compound 0.01 µM; stronger effect = lower value
reported-property: viability, T/C (%)
Expressed in %, but write only the number.

Reported viability, T/C, compound CCN1CCN(Cc2ccc(Nc3ncc(F)c(-c4cc(F)c5nc(C)n(C(C)C)c5c4)n3)nc2)CC1 + C#Cc1c(F)ccc2cc(O)cc(-c3ncc4c(N5CC6CCC(C5)N6)nc(OCC56CCCN5CC(F)C6)nc4c3F)c12 : ____ 48.2

Consider the additional compound presented here.
Reported viability, T/C, compound C=CC(=O)N1CCN(c2nc(OCC3CCCN3C)nc3c(F)c(-c4nc(N)cc(C)c4C(F)(F)F)c(Cl)cc23)C(C)C1 (configuration not stated) + C#Cc1c(F)ccc2cc(O)cc(-c3ncc4c(N5CC6CCC(C5)N6)nc(OCC56CCCN5CC(F)C6)nc4c3F)c12 : ____ 53.2

====

System: 242566-281-R-J2-PDC complex spheroid viability
Test: Anticancer human tumor 242566-281-R-J2-PDC cell line growth inhibition [RAS];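 also: spheroids exposed to compound for 7 days before readout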;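 as to viability, T/C: 100% = DMSO vehicle control wells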
Details: second compound 0.000949 µM; first compound 0.01 µM; stronger effect = lower value
Recorded viability, T/C by entry

The examples below pair each entry with its known result.
Reported viability, T/C, compound C=CC(=O)N1CCN(c2nc(OCC3CCCN3C)nc3c(F)c(-c4nc(N)cc(C)c4C(F)(F)F)c(Cl)cc23)C(C)C1 (centres undefined) + CCn1c(-c2cccnc2C(C)OC)c2c3cc(ccc31)N1CCOC(CC(NC(=O)C(C(C)C)N(C)C(=O)C3(F)CCN(C(=O)C#CC(C)(C)N(C)C)CC3)C(=O)N3CCCC(N3)C(=O)OCC(C)(C)C2)C1 : ____ 98.5%

Reported viability, T/C, compound C=CC(=O)Nc1cc(Nc2nccc(-c3cn(C)c4ccccc34)n2)c(OC)cc1N(C)CCN(C)C + CCn1c(-c2cccnc2C(C)OC)c2c3cc(ccc31)N1CCOC(CC(NC(=O)C(C(C)C)N(C)C(=O)C3(F)CCN(C(=O)C#CC(C)(C)N(C)C)CC3)C(=O)N3CCCC(N3)C(=O)OCC(C)(C)C2)C1 : ____ 107%

Reported viability, T/C, compound O=C(c1ccc(F)c(F)c1Nc1ccc(I)cc1F)N1CC(O)([C@@H]2CCCCN2)C1 + CCn1c(-c2cccnc2C(C)OC)c2c3cc(ccc31)N1CCOC(CC(NC(=O)C(C(C)C)N(C)C(=O)C3(F)CCN(C(=O)C#CC(C)(C)N(C)C)CC3)C(=O)N3CCCC(N3)C(=O)OCC(C)(C)C2)C1 : ____ 90.8%

Consider the additional compound presented here.
Reported viability, T/C, compound O=C(c1ccc(F)c(F)c1Nc1ccc(I)cc1F)N1CC(O)([C@@H]2CCCCN2)C1 + CCn1c(-c2cc(N3CCN(C)CC3)cnc2C(C)OC)c2c3cc(ccc31)-c1csc(n1)CC(NC(=O)C1CC1C)C(=O)N1CCCC(N1)C(=O)OCC(C)(C)C2 : ____ 71.1%
